assay-info: Half-life in rat hepatocytes
Type: ADME, cell-based, Hepatocyte
quantity-name: half-life (min)

I. C[C@H]1COCCN1c1nc(-c2cnc(N)cc2C(F)F)nc(N2CCOCC2)n1
II. O=c1ccc2ccc(O)cc2o1
III. CCOc1ccc2ccc(=O)oc2c1
Let's sort these by half-life, smallest first. Go ahead? Provide your answer as the labels ordered per the instruction.
II, III, I
(II: 11.1 min, III: 46.2 min, I: 192 min)

###

study-target: Phosphatidylinositol 4,5-bisphosphate 3-kinase catalytic subunit gamma isoform (Homo sapiens)
Sequence (P48736 whole entry, the tested form may be a part, canonical isoform): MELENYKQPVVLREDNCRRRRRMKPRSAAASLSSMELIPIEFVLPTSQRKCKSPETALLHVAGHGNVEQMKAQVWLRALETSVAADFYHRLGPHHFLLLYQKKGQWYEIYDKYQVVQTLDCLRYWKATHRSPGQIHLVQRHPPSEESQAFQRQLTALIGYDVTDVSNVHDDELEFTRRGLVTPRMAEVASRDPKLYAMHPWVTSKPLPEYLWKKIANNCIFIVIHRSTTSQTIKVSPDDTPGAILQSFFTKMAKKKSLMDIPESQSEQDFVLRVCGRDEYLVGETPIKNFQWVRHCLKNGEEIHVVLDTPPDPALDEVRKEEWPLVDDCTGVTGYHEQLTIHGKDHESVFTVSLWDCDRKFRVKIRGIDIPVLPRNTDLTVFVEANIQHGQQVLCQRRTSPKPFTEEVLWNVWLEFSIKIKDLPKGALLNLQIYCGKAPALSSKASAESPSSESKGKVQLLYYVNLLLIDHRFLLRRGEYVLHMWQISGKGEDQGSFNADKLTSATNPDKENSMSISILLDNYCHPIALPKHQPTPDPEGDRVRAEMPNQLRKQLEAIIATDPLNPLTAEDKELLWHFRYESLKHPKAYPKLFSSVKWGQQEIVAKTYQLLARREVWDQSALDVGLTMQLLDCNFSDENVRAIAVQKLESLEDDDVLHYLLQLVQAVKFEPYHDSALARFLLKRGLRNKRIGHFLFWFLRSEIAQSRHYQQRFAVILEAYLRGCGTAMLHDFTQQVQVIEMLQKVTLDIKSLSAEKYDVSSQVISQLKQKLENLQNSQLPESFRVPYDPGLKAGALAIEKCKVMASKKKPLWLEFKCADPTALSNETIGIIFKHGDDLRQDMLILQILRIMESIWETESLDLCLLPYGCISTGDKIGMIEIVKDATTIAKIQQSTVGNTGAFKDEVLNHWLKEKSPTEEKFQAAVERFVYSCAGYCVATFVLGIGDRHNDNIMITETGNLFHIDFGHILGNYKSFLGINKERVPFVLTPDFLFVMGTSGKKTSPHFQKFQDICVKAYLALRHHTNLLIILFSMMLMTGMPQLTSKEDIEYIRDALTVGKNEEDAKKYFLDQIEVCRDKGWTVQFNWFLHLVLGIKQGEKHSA
assay-info: Binding affinity to wild-type human partial length PIK3CG (S144 to A1102 residues) expressed in mammalian expression system by quantitative PCR based KINOMEscan assay
quantity-name: Kd (nM)
Give a bare numeral; the unit nM is implied.

Sample `C[C@H]1COCCN1c1nc(-c2cnc(N)cc2C(F)F)nc(N2CCOCC2)n1` ; Kd observed: 10
